# studyTarget: UniProt:Q72547
# methodNotes: In vitro inhibitory activity against HIV-1 reverse transcriptase at 100 uM
measuredQuantity: inhibition
Entry format: amount then unit.

Documented inhibition of COc1c(C)cc(CN2CCN(c3ccccn3)CC2)cc1C : 0%

For COc1c(C)cc(CN2CCN(c3ncccn3)CC2)cc1C the molecule record lists inhibition as 0%

Short answer for CCOc1ccccc1N1CCN(C(=O)c2cc3ccccc3[nH]2)CC1 : inhibition was 76%

Short answer for CCNc1cccc(N2CCN(C(=O)c3ccc4[nH]ccc4c3)CC2)n1 : inhibition was 0%

response.value for COc1c(C)cc(C(=O)N2CCN(c3ncccc3NC(C)C)CC2)cc1C (field: inhibition) = 78%

Value of measured inhibition for the entry Nc1cccnc1N1CCN(C(=O)c2cc3ccccc3[nH]2)CC1 : 20%

What the record says about CCNc1cccnc1N1CCN(C(=O)c2ccc[nH]2)CC1 : inhibition is 87%

# inhibition (molecule: CCNc1cccnc1N1CCN(C(=O)c2cc3cc(OC)ccc3[nH]2)CC1.CS(=O)(=O)O [ATEVIRDINE SULPHATE] ) is 92%

Lab book: inhibition of CCNc1cccnc1N1CCN(C(=O)c2cccs2)CC1 noted as 60%

The reported inhibition of the molecule CCNc1cccnc1N1CCN(C(=O)c2cnccn2)CC1 was 0%

Noted for COc1ccccc1N1CCN(C(=O)c2cc3ccccc3[nH]2)CC1 : its inhibition reads 33%
